targetOfAssay: PAI-1 (Homo sapiens, UniProt P05121)
Sequence (P05121 24-402): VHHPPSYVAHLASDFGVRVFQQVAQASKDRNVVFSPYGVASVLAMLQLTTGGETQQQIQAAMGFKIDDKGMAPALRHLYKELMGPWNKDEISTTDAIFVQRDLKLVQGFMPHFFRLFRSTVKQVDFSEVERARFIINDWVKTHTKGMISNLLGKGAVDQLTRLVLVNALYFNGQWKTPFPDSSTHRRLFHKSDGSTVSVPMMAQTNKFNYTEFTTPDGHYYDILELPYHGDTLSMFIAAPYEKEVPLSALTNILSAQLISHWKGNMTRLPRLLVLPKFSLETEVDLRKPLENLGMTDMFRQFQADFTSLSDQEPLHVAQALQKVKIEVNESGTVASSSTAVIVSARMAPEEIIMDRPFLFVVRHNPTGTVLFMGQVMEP
assay: PAI chromogenic substrate assay (first S2251 assay, tPA/plasminogen system)
Assay type: biochemical
conditionLabel: Concentration 6.25 μm
quantityName: Inhibition of PAI-1 in the first S2251 chromogenic substrate assay (%)

Study these solved cases before continuing.
smilesEntry	scaleUnit	valueMeasured
COc1ccc(/C=c2\[nH]c(=O)/c(=C/c3ccccc3)[nH]c2=O)cc1OC	%	0
COC(=O)CCCC(=O)NCc1ccc(/C=c2\[nH]c(=O)/c(=C/c3ccccc3)[nH]c2=O)cc1	%	43

A: O=c1[nH]/c(=C\c2cccc(O)c2)c(=O)[nH]/c1=C\c1ccccc1
B: CC(=O)SCc1ccc(/C=c2\[nH]c(=O)/c(=C/c3ccccc3)[nH]c2=O)cc1
// task: argmin of Inhibition of PAI-1 in the first S2251 chromogenic substrate assay over [ A , B ] Answer with the label corresponding to your selection.
A
(A: 0%, B: 2%)

====

targetOfAssay: PAI-1 (Homo sapiens, UniProt P05121)
assay: PAI chromogenic substrate assay (first S2251 assay, tPA/plasminogen system)
Type: biochemical
conditionLabel: Concentration 12.5 μm
quantityName: Inhibition of PAI-1 in the first S2251 chromogenic substrate assay (%)

1: COc1ccc(/C=c2\[nH]c(=O)/c(=C/c3ccc(OC(C)C)cc3)[nH]c2=O)cc1
2: COc1ccc(/C=c2\[nH]c(=O)/c(=C/c3ccc(NC(=O)COC(C)=O)cc3)[nH]c2=O)cc1
# returns the entry with the larger Inhibition of PAI-1 in the first S2251 chromogenic substrate assay; inputs 1 and 2 Identify your pick by its label.
2
(2: 28%, 1: 1%)

====

targetOfAssay: PAI-1 (Homo sapiens)
assay: PAI chromogenic substrate assay (first S2251 assay, tPA/plasminogen system)
Format: biochemical
conditionLabel: Concentration 60 μm
quantityName: Inhibition of PAI-1 in the first S2251 chromogenic substrate assay (%)

Would you please look over these solved cases?
smilesEntry	valueMeasured
O=c1[nH]/c(=C\c2cccc([N+](=O)[O-])c2)c(=O)[nH]/c1=C\c1ccccc1	56
CC(=O)Nc1ccc(/C=c2\[nH]c(=O)/c(=C/c3ccc(F)cc3)[nH]c2=O)cc1	76
COc1ccc(/C=c2\[nH]c(=O)/c(=C/c3ccc(NC(C)=O)cc3)[nH]c2=O)cc1	57
CC(=O)Nc1ccc(/C=c2\[nH]c(=O)/c(=C/c3ccccc3)[nH]c2=O)cc1	72
CC(=O)Nc1ccc(/C=c2\[nH]c(=O)/c(=C/c3ccc(Cl)cc3)[nH]c2=O)cc1	58
CC(=O)Oc1ccc(/C=c2\[nH]c(=O)/c(=C/c3ccccc3)[nH]c2=O)cc1	65

a: CC(=O)Nc1ccc(/C=c2\[nH]c(=O)/c(=C/c3ccccc3F)[nH]c2=O)cc1
b: O=c1[nH]/c(=C\c2cccc(CS)c2)c(=O)[nH]/c1=C\c1ccccc1
# returns the entry with the larger Inhibition of PAI-1 in the first S2251 chromogenic substrate assay; inputs a and b // output: label of the selected item
b

====

targetOfAssay: PAI-1 (Homo sapiens)
assay: PAI chromogenic substrate assay (first S2251 assay, tPA/plasminogen system)
Type: biochemical
conditionLabel: Concentration 15 μm
quantityName: Inhibition of PAI-1 in the first S2251 chromogenic substrate assay (%)

compound	valueMeasured
COc1ccc(/C=c2\[nH]c(=O)/c(=C/c3ccc(NC(C)=O)cc3)[nH]c2=O)cc1 [Compound 26]	73
CC(=O)Nc1ccc(/C=c2\[nH]c(=O)/c(=C/c3ccc(Cl)cc3)[nH]c2=O)cc1 [Compound 42]	59

A: O=c1[nH]/c(=C\c2cccc(CS)c2)c(=O)[nH]/c1=C\c1ccccc1 [Compound 64]
B: CC(=O)Nc1ccc(/C=c2\[nH]c(=O)/c(=C/c3ccc(F)cc3)[nH]c2=O)cc1 [Compound 72]
I'm curious, which of these has a smaller Inhibition of PAI-1 in the first S2251 chromogenic substrate assay number: A or B ? Could you answer with the label of the item you picked?
B
(B: 18%, A: 63%)
